We begin with a simple list: items and their reported area under the dose-response curve.
Test system: SB.mhdgc-1
Test: area under the dose-response curve of % viability (trapezoidal, 11 doses) (% viability x log10 concentration); higher = less cytotoxic
Settings: SB.mhdgc-1 (hereditary c.1380delA CDH1 gastric cancer)
Give the figure by itself; no unit, no explanation.

>>> reported("COc1cc([C@@H]2c3cc4c(cc3[C@@H](O[C@@H]3O[C@@H]5CO[C@@H](c6cccs6)O[C@H]5[C@H](O)[C@H]3O)[C@H]3COC(=O)[C@H]23)OCO4)cc(OC)c1O [Teniposide] (top concentration 46.0829 µM)")
243
>>> reported("CNC(=O)c1c(F)cccc1Nc1nc(Nc2cc3c(cc2OC)CCN3C(=O)CN(C)C)nc2[nH]ccc12 (top concentration 46.0829 µM)")
302
>>> reported("CC(C)c1ccccc1Cc1cc(C(=O)Nc2ccc([S+](=O)([O-])c3ccccc3C(C)(C)C)cc2)c(O)c(O)c1O [TW-37] (top concentration 46.0829 µM)")
498
>>> reported("COc1cc(CCc2cc(NC(=O)c3ccc(N4C[C@@H](C)N[C@@H](C)C4)cc3)n[nH]2)cc(OC)c1 [AZD-4547] (top concentration 46.0829 µM)")
482

Here is the next item to consider.
get_value(item= Cc1nc(NC(=O)N2CCC[C@H]2C(N)=O)sc1-c1csc(C(C)(C)C)n1 [A-66] (top concentration 46.0829 µM) , readout=area under the dose-response curve) returns 377

---

System: SB.mhdgc-1
Test: area under the dose-response curve of % viability (trapezoidal, 11 doses) (% viability x log10 concentration); higher = less cytotoxic
Details: SB.mhdgc-1 (hereditary c.1380delA CDH1 gastric cancer)
Where a name gives a salt, the structure may show the parent alone.
We begin with a simple list: items and their reported area under the dose-response curve.
Give the figure by itself; no unit, no explanation.

Please review the entries below; each comes with its answer.
>>> reported("COc1cc(OC)c(C(=O)CCCN2CCCC2)c(OC)c1 [Buflomedil hydrochloride] (top concentration 46.0829 µM)")
514
>>> reported("C[C@]12CCC(=O)C=C1CC[C@@H]1[C@@H]2[C@@H](O)C[C@@]2(C)[C@H]1CC[C@]2(O)C(=O)CO [Hydrocortisone] (top concentration 46.0829 µM)")
582

get_value(item= O=C(CO)N1CCC(c2n[nH]c(-c3ccc(Cl)cc3)c2-c2ccncn2)CC1 [SD-06] (top concentration 46.0829 µM) , readout=area under the dose-response curve) returns 539

get_value(item= CCOC(=O)c1ccc(C#Cc2ccc3c(c2)C(C)(C)CCS3)nc1 [Tazarotene] (top concentration 46.0829 µM) , readout=area under the dose-response curve) returns 533

get_value(item= O=C(O)/C=C/c1ccc(O)c(O)c1 [Caffeic acid] (top concentration 46.0829 µM) , readout=area under the dose-response curve) returns 489

get_value(item= CC(C)c1noc(N2CCC(COc3ccc(-c4ccc([S+](C)(=O)[O-])cc4)nc3)CC2)n1 (top concentration 46.0829 µM) , readout=area under the dose-response curve) returns 621

get_value(item= O=C(c1ccc(/C=C/c2n[nH]c3ccccc23)cc1)N1CCNCC1 [KW-2449] (top concentration 46.0829 µM) , readout=area under the dose-response curve) returns 497

get_value(item= CNC(=O)c1ccc(N2C(=S)N(c3ccc(C#N)c(C(F)(F)F)c3)C(=O)C23CCC3)cc1F [RD-162] (top concentration 46.0829 µM) , readout=area under the dose-response curve) returns 493

get_value(item= COC1=CC(=CC(=C1)C2=CC=C3N=CC\4=C(N(C(=O)\C=C4)C5=CC(=C(C=C5)N6CCNCC6)C(F)(F)F)C3=C2)OC (top concentration 46.0829 µM) , readout=area under the dose-response curve) returns 376

get_value(item= COC(=O)[C@H](Cc1ccccc1)NC(=O)[C@@H](N)CC(=O)O [Aspartame] (top concentration 46.0829 µM) , readout=area under the dose-response curve) returns 543

get_value(item= COc1ccc(C(=O)CC2(O)C(=O)Nc3c(Cl)ccc(Cl)c32)cc1 (stereo not drawn) [YK-4-279] (top concentration 46.0829 µM) , readout=area under the dose-response curve) returns 438

get_value(item= CC(C)c1ccc(Cn2ccc3c4c(N)nc(NC5CC5)nc4ccc32)cc1 (top concentration 46.0829 µM) , readout=area under the dose-response curve) returns 402

get_value(item= CCOC(=O)c1ncn2c1CN(C)C(=O)c1cc(F)ccc1-2 [Flumazenil] (top concentration 46.0829 µM) , readout=area under the dose-response curve) returns 512

get_value(item= FC1=C(C=C(C\C2=N\NC(=O)C3=C2C=CC=C3)C=C1)C(=O)N4CCN(CC4)C(=O)C5CC5 [Olaparib] (top concentration 46.0829 µM) , readout=area under the dose-response curve) returns 412

get_value(item= CCNC(=O)Nc1ccc(Oc2ncnc(N)c2/C=N/OC)cc1Cl (top concentration 46.0829 µM) , readout=area under the dose-response curve) returns 534

get_value(item= CC(=O)OC\C1=C(\[N@]2[C@@H](SC1)[C@H](N)C2=O)C(O)=O [7-Aminocephalosporanic acid] (top concentration 46.0829 µM) , readout=area under the dose-response curve) returns 512

get_value(item= Cc1cc(Nc2cc(CN3CCOCC3)c3nc(C)c(Cc4ccc(Cl)cc4F)n3n2)[nH]n1 [Gandotinib] (top concentration 46.0829 µM) , readout=area under the dose-response curve) returns 503

get_value(item= C#CCN[C@@H]1CCc2ccccc21.CS(=O)(=O)O [Rasagiline mesilate] (top concentration 46.0829 µM) , readout=area under the dose-response curve) returns 574

get_value(item= C[C@H]1COC/2=C1/C(=O)C(=O)C3=C4CCCC(C)(C)C4=CC=C23 [Cryptotanshinone] (top concentration 46.0829 µM) , readout=area under the dose-response curve) returns 429

get_value(item= CCCC[S+](=N)([O-])CCC(N)C(=O)O (stereo not drawn) [Buthionine sulphoximine] (top concentration 46.0829 µM) , readout=area under the dose-response curve) returns 517

get_value(item= C=CC(=O)Nc1cc2c(Nc3ccc(F)c(Cl)c3)ncnc2cc1C#CC(C)(C)N1CCN(C)CC1 [AV-412] (top concentration 46.0829 µM) , readout=area under the dose-response curve) returns 438

get_value(item= COc1ccccc1N1CCN(CC(O)COc2cccc3ccccc23)CC1 (stereo not drawn) [Naftopidil] (top concentration 46.0829 µM) , readout=area under the dose-response curve) returns 536

get_value(item= OC1=CC2=C(C(=C1)O)C(=O)\C=C(/O2)C3=CC=CC=C3 [5,7-Dihydroxyflavone] (top concentration 46.0829 µM) , readout=area under the dose-response curve) returns 566
